These measurements were taken from the METLIN SMRT retention time set (Domingo-Almenara et al. 2019).

assay: gradient 5% acetonitrile 3 min, to 50% in 2 min, to 85% in 15 min, held 3 min, 100 µL/min; details: column: Zorbax Extend-C18 2.1 x 50 mm; eluents: water / acetonitrile, 0.1% formic acid
measurement_type: RP-LC retention time (s)

compound: COc1ccc(-c2cn3c(CC(=O)Nc4ccc(OC)cc4OC)csc3n2)cc1
measurement_type: RP-LC retention time
endpoint_value: 746
--
compound: Cc1ccc(Nc2c(-c3ccccc3)nc3cnccn23)c(Br)c1
measurement_type: RP-LC retention time
endpoint_value: 1040
--
compound: Cn1cc(S(=O)(=O)N2CCC(C(=O)NC3CCCCC3)CC2)cc1C(=O)N1CCCC1
measurement_type: RP-LC retention time
endpoint_value: 736
--
compound: CC(C)c1ccc(S(=O)(=O)N2CC=C(c3cn(C)c4ncccc34)CC2)cc1
measurement_type: RP-LC retention time
endpoint_value: 1130
--
compound: CCCc1nc(-c2c(C)cc(C)nc2NC(=O)c2ccc(C)cc2)no1
measurement_type: RP-LC retention time
endpoint_value: 893
--
compound: O=C(NCc1ccc(C(F)(F)F)cc1)C1CCN(c2nnc(-c3ccccc3)o2)CC1
measurement_type: RP-LC retention time
endpoint_value: 901
--
compound: CCN1CCC(N(Cc2cccs2)C(=O)Nc2ccc(OC)c(OC)c2)CC1
measurement_type: RP-LC retention time
endpoint_value: 604
--
compound: COc1ccccc1N1CCN(c2cc(SCC(=O)NC(C)CCc3ccccc3)ncn2)CC1 (centres undefined)
measurement_type: RP-LC retention time
endpoint_value: 1020
--
compound: CCCOc1ccc(CNC(=O)C2CCN(c3ncnc4c3oc3ccccc34)CC2)cc1
measurement_type: RP-LC retention time
endpoint_value: 841

====

test: gradient 5% acetonitrile 3 min, to 50% in 2 min, to 85% in 15 min, held 3 min, 100 µL/min; conditions: column: Zorbax Extend-C18 2.1 x 50 mm; eluents: water / acetonitrile, 0.1% formic acid
measurement_type: RP-LC retention time (s)

molecule: CCOC(=O)C1CCCN(S(=O)(=O)c2ccc(Cl)c(-c3nnc(-c4ccccc4)o3)c2)C1 (stereo not given)
unit_text: s
RP-LC retention time: 1120

molecule: CCC(=O)N1CCc2ccccc2C1C(=O)NCc1ccc(SC)cc1 (stereo not given)
unit_text: s
RP-LC retention time: 853

I = O=C(Cn1cnc2c(sc3nc(-c4ccccc4)ccc32)c1=O)Nc1ccc(F)cc1
II = CCC(=O)N1CCc2cc(C(=O)N3CCOCC3)ccc21
Exercise: From the items above, decide which of I and II has the lower RP-LC retention time reading. Reply briefly: the label of your chosen item.
Key: II
(II: 637 s, I: 994 s)

====

test: gradient 5% acetonitrile 3 min, to 50% in 2 min, to 85% in 15 min, held 3 min, 100 µL/min; details: column: Zorbax Extend-C18 2.1 x 50 mm; eluents: water / acetonitrile, 0.1% formic acid
measurement_type: RP-LC retention time (s)

Sample answers from the record:
compound: COCCCN1CN=C(Nc2nc(C)c3ccccc3n2)NC1
unit_text: s
RP-LC retention time: 626

compound: Cc1oc(C2CCN(C(=O)Nc3ccc(Br)cc3)CC2)nc1C(=O)N(C)C
unit_text: s
RP-LC retention time: 759

compound: Cc1sc(NC(=O)CSc2nnc3c4ccccc4n(C)c3n2)nc1-c1ccccc1
unit_text: s
RP-LC retention time: 1030

compound: COc1ccc(OC)c(CNC(=O)C2CCCN(c3ncnc4c3oc3ccccc34)C2)c1 (stereo not given)
unit_text: s
RP-LC retention time: 761

I = CCCCNC(=O)c1ccc(-c2ccc3c(c2)CCN3C(C)=O)cc1
II = COc1ccc(C(=O)N2CCc3nc(CNC(=O)C4CCC4)n(C)c3C2)cc1
Exercise: From the items above, decide which of I and II has the lower RP-LC retention time reading. Reply briefly: the label of your chosen item.
Key: II
